Conditions: in n-heptane, 293.1 K
property: solubility (mole fraction)
Kindly provide the number alone.

Please fill in: solubility (mole fraction) reported for Clc1cc(Cl)c(OCCBr)c(Cl)c1 = 0.069

###

Conditions: in isopropanol, 298.2 K
property: solubility (mole fraction)
Kindly provide the number alone.

Please fill in: solubility (mole fraction) reported for Clc1cc(Cl)c(OCCBr)c(Cl)c1 = 0.0118

###

Conditions: in isopropanol, 313.1 K
property: solubility (mole fraction)
Kindly provide the number alone.

Please fill in: solubility (mole fraction) reported for Clc1cc(Cl)c(OCCBr)c(Cl)c1 = 0.0204

###

Conditions: in acetone, 308.2 K
property: solubility (mole fraction)

Please fill in: solubility (mole fraction) reported for Clc1cc(Cl)c(OCCBr)c(Cl)c1 = 0.182

###

Conditions: in methanol, 303.2 K
property: solubility (mole fraction)
Kindly provide the number alone.

Please fill in: solubility (mole fraction) reported for Clc1cc(Cl)c(OCCBr)c(Cl)c1 = 0.0112

###

Conditions: in isopropanol, 288.2 K
property: solubility (mole fraction)

Please fill in: solubility (mole fraction) reported for Clc1cc(Cl)c(OCCBr)c(Cl)c1 = 0.00825

###

Settings: in ethanol, 298.1 K
property: solubility (mole fraction)
Kindly provide the number alone.

Please fill in: solubility (mole fraction) reported for Clc1cc(Cl)c(OCCBr)c(Cl)c1 = 0.0108

###

Settings: in acetonitrile, 313.2 K
property: solubility (mole fraction)
Kindly provide the number alone.

Please fill in: solubility (mole fraction) reported for Clc1cc(Cl)c(OCCBr)c(Cl)c1 = 0.0525

###

Details: in n-heptane, 318.2 K
property: solubility (mole fraction)
Kindly provide the number alone.

Please fill in: solubility (mole fraction) reported for Clc1cc(Cl)c(OCCBr)c(Cl)c1 = 0.182

###

Conditions: in ethanol, 278.2 K
property: solubility (mole fraction)
Kindly provide the number alone.

Please fill in: solubility (mole fraction) reported for Clc1cc(Cl)c(OCCBr)c(Cl)c1 = 0.00698

###

Details: in n-heptane, 303.2 K
property: solubility (mole fraction)
Kindly provide the number alone.

Please fill in: solubility (mole fraction) reported for Clc1cc(Cl)c(OCCBr)c(Cl)c1 = 0.102

###

Conditions: in n-propanol, 283.2 K
property: solubility (mole fraction)
Kindly provide the number alone.

Please fill in: solubility (mole fraction) reported for Clc1cc(Cl)c(OCCBr)c(Cl)c1 = 0.0105

###

Settings: in acetonitrile, 308.2 K
property: solubility (mole fraction)
Kindly provide the number alone.

Please fill in: solubility (mole fraction) reported for Clc1cc(Cl)c(OCCBr)c(Cl)c1 = 0.0437

###

Conditions: in acetone, 323.2 K
property: solubility (mole fraction)
Kindly provide the number alone.

Please fill in: solubility (mole fraction) reported for Clc1cc(Cl)c(OCCBr)c(Cl)c1 = 0.253

###

Details: in isopropanol, 308.2 K
property: solubility (mole fraction)
Kindly provide the number alone.

Please fill in: solubility (mole fraction) reported for Clc1cc(Cl)c(OCCBr)c(Cl)c1 = 0.017

###

Settings: in n-heptane, 298.1 K
property: solubility (mole fraction)
Kindly provide the number alone.

Please fill in: solubility (mole fraction) reported for Clc1cc(Cl)c(OCCBr)c(Cl)c1 = 0.0839

###

Conditions: in n-propanol, 293.2 K
property: solubility (mole fraction)
Kindly provide the number alone.

Please fill in: solubility (mole fraction) reported for Clc1cc(Cl)c(OCCBr)c(Cl)c1 = 0.0121
